Measured values drawn from the supplement of paper PMC9170038 for this set.

Tested on: MS2 coat protein
protocol_details: apparent KD of MS2 coat protein; higher = weaker reporter binding
test_conditions: Eterna round: R107; input ligand: none
outcome_measure: apparent KD of MS2 coat protein (nM)

primary_sequence	outcome_measure	reported_value
UGUAUGGACUGAAGGAGCGGGUUGAUAACCUGAGGAUCACCCAGGUAAAAGGCGAAAGCCACCCAGGUAGGUCGCAGUCCAUACU	apparent KD of MS2 coat protein	18.1
UAUUAUAACCGAAGGAGCGGGAAAGAUGAUUUUUAAUAUUAACAUGAGGAUCACCCAUGUACCCAGGUAGGUCGCGGAUAUUAUU [Default title]	apparent KD of MS2 coat protein	19.5
AAGACGCCGGGAAGGAGCGCAUCCAAACCACACAUGAGGAUCACCCAUGUAUAAAUAUGCAUGCAGGUAGGUCGCCCGAUGUCCC [Orbemative]	apparent KD of MS2 coat protein	31.6
AGGACGGUCGGAAGGAGCGGUACAUGAGGAUCACCCAUGUACUCCUGGGCAUCCGUAGUGUGCCAGGUAGGUCGCCGAUUGCGGG [XArg-B8]	apparent KD of MS2 coat protein	12.1
UAUAUAGAAGGAAGUCAUAUAGAUGCAGAAGGAGCGUAGGAAACUACAGGUAGGUCGCUGAGGUACAUGAGGAUCACCCAUGUAG [SSArg A #15 Slice of Pi]	apparent KD of MS2 coat protein	32.3
GGGAAAGGAGAAGAUACCAGCCGCCUCACAAGUCUACACUACAUGAGGAUCACCCAUGUGGGCCCUUGGCAGCUUGACCGCGAAA [theeternabot_exclusion_MS2_Theo_B_20]	apparent KD of MS2 coat protein	27.4

----------
Test system: K4 kissing-loop RNA reporter
protocol_details: apparent KD of K4 kissing-loop reporter; higher = weaker reporter binding
test_conditions: Eterna round: R107; input ligand: FMN 200 uM
# reported apparent KD of K4 kissing-loop reporter; entries follow
outcome_measure: apparent KD of K4 kissing-loop reporter (µM)

primary_sequence	outcome_measure	units_text	reported_value
UCGGCAGUGAACGAUACCAGCGUCACGUGGCUGGUGGUCACAUGAGUGAUGUUCAUGUAACGCCCUUGGCAGCGUGCGCGUACCG [KL-XTheo-B11]	apparent KD of K4 kissing-loop reporter	µM	0.113
UUGAGCCGGACGUAAGUCCGGCUCUGCGAGCGAGGACCGGUACGGCCGCCACUCGGUGCAGUGAUGUUGCAUGGCCGCAAGGCCG [#2 Exclusion - Tryptophan A Attempt #5 (HarryS)]	apparent KD of K4 kissing-loop reporter	µM	0.325
ACGUAGUUCUAGGAUACCAGCCAAGGACGCCAGGACAAAAGUCCUGGCGCCAGUGAUGUUGGCCCUUGGCAGCCUAGAACUACGA [Omei KL Theo B Exc B v5]	apparent KD of K4 kissing-loop reporter	µM	0.197

----------
System: K4 kissing-loop RNA reporter;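 further: bound reporter read as fluorescence of individual clusters on recovered sequencing chips by microscopy, with normalized cluster intensities fitted with a binding model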
protocol_details: apparent KD of K4 kissing-loop reporter; higher = weaker reporter binding
test_conditions: Eterna round: R107; input ligand: theophylline 20 uM
apparent KD of K4 kissing-loop reporter for assorted sequences

primary_sequence	apparent KD of K4 kissing-loop reporter, nM
GUGCGGCUAGUGAUGUUGGUUGUGUGGGAAGGAGCGCAGAUACAUGCAGGUAGGUCGCCCACACCUCUGAAAGGAGGCUAAUUCA [KL-SSArg-A15]	325
UUGCAAGAGUCGGCCGCCACUCCGGGCCCUAUAAAUGGGCGCAGUGAUGUUGCGGCUAGGCCUCUGAGGACCGGGACUUUGUAGC [Ateusraor]	82.9
AGUAAUCUCACGGCCGCCACUGUUUAUUGUUUUUAUAGUUAUAAAUCUUGCCAGUGAUGUUGGUACAGGACCGGGUGAGUUAAUA [#25 K4 Tryptophan B Same State]	353
UCGUCUGUGUGAGGAUAUCCAAGCGAGCUGCGUAAAGGCGCGGCGUUUGGAGUGAUGUUCCAGGCAGGAGAAGGCGCACGGGCUU [Maleisar]	470
UAAUCCUAGUGAUCCUUAUCAAGUGGUGGGCGAGGACCGGUACGGCCGCCACUCGAAUAUGCAGUGAUGUUGUAAUCCGGAUAAU [Exclusion - Tryptophan A (Freestyle 9)]	750
AGGGUUUAACACGAUACCAGCCUGGAGGCCAGUGAUGUUGGCCGAUUUGAACAGAAUUAAGGCCCUUGGCAGCGUCUUUAAAACC [Biarat]	165
GGAUAGGACAGAGGAUAUGGUAGUGAUGUUACCAAACUGGUUACUAAUGUCAGAAAACUGGCAAAUCCAGAAGGCUGUCCUAUCG [KL-XFMN-B13]	69.5
AGUUCUUGCCGAAGGAGCGAGGCAGAGUGAUGUUCUGCAGGAGGUCGAAAGACCUCCCUGCCUCAGGUAGGUCGCGGCAUGAACA [Omei KL Arginine B Exc A v1]	566
CUUGGUGGCUACAUCAGGAAUUGCGGCGGAAAGGAUAUUCAUUGGCGAAGAAGGUUCCAAGUGACGAGUGAUGUUCUUCGUAAGG [theeternabot_sameState_KL_FMN_A_13]	579
UGGAUAUAGUGAUGUUAUAUAGAGAUGGAUACCAGUUAAGAGAAUAGCCCUUGGCAGCCGAAAGAAGUAUCAUUAGAGAAGAAUG [ExTheophyl.Ad]	194
CGCAGUGAUGUUGCGAGUAGAUACAGGGAAGGAGCGCCGUAGUAGGCAGGUAGGUCGCCCACGCAGUGAUGUUGCGUCAUAGGGU [Exclusion Arginine A GF 5]	116
AUCGUUGUCUGAGGAUAUCGUUUAACUGUAGUGAUGUUACAGAAAAUUCAUAUUAUAUUUUCUAUUCGAGAAGGCAGACUACGUA [JR_ExcFMNB_Sub016]	123
GUUGCAGCCCGUGAUACCAGCAUCGGUCGCCGGGUCCAGUGAUGUUGGGCUUGCGUUCUAUGCCCUUGGCAGCGCGGCCUGACAG [Qulaanar]	393
AAUAACUAGUAUAUUUGUAAUAAAACAGAUACCAGUGAUAAUAAACACCCUUGGCAGCUGAUCGAGUGAUGUUCGUUUAUUUUAA [JR_SSTheophyA_Sub004]	130
AGCAGUGAUGUUGCUCAAUUUACAGGUGAUACCAGAGGUCAGUCUCUCCCUUGGCAGCACUUCAUACGAUGAUGUUUUAUCGGCC [theeternabot_sameState_KL_Theo_A_50]	378
UUUAUAAGGUCGGCCGCCACUGGAUUUAUGUUUGUUUCGUCUGGAUCAAAGUGAUGUUUUGAGUCCAGGACCGGGACAUUUGUUA [whbob_Ex_Tryp_B_w39]	75.6
GCGUUAGUACUCGAUACCAGACCUCUAGUAGUGAUGUUGCUUGGCGAAGGCCUCGAACGAGUCCCUUGGCAGCGAGGAAAGAGGA [theeternabot_sameState_KL_Theo_B_4]	376
GAAAGAAAGUAUGAUACCAGACACCCGAGUGAUGUUCGGAGCAGUGUGAUGUUCUUUUAAGUCCCUUGGCAGCAUAAAAGAAAAG [whbob_SS_Theo_B_sa84]	101
CGCAGUGAUGUUGCUAUUAUUCUUGGUUAACGAGGACCGGUACGGCCGCCACUCGGUUUCUAUCUAAUCCAGUGUUUUUUUGAGU [#24 K4 Tryptophan A Exclusion]	573
GCCGUAGAUGGAAGGAGCGUGGUUAAUGUAAGUGAUGUUUACGAGGUUAACAAUUGACCGCCACAGGUAGGUCGCCAUCUACGGC	70.5
AUGCGGUGGAGGCUACCGCUAUUCUGAGAAGGAGCGCAGAUGACUGCAGGUAGGUCGCUUAGAGCUUGCAGUGAUGUUGCAAGUU [Islatimaed]	174
UGUCAUUGGUCUGAUACCAGUUGAUGACGAAUACGUCAACUGGAGUGAUGUUCCUAAAACAACCCUUGGCAGCAGACCGAUGACU [TheoBS 1 #SwitchBubble #StaticStem]	709
UGAUAAAGCAGUGAUGUUGCAAGAAAUGAUACCAGUUAAGAAGAGAACCCUUGGCAGCAUAAAGUGCGCUCUAAUGAGUGUGCUU [whbob_SS_Theo_A_w50]	179
